- target.entity: P2X2/P2X3 heterotrimeric receptor (Homo sapiens, UniProt P56373+Q9UBL9)
- experimental.details: Antagonist activity at human P2X2/3 receptor expressed in 1321n1c cells by FLIPR
- Type: functional, cell-based
- condition.description: read-out: IC50
measurement.type: IC50 (nM)
One number for each entry, in nM.

Field: IC50 (P2X2/P2X3 heterotrimeric receptor (Homo sapiens, UniProt P56373+Q9UBL9)). Entry: "COc1cc(C(C)C)c(Oc2cnc(N)nc2N)cc1I" 25

* * *

- target.entity: P2X purinoceptor 5 (Homo sapiens, UniProt Q93086)
- Sequence (Q93086 whole entry): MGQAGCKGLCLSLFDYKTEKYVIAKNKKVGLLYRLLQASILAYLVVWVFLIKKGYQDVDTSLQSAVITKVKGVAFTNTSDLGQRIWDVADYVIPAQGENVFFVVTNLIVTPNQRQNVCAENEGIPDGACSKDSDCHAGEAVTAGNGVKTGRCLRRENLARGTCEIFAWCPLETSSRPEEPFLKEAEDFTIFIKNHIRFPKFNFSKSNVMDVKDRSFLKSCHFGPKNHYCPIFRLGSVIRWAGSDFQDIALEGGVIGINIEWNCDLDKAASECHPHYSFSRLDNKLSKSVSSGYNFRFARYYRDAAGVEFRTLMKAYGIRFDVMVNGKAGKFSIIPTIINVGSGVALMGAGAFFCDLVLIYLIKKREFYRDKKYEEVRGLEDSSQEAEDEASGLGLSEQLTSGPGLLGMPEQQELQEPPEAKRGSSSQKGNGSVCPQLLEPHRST
- experimental.details: Antagonist activity at P2X5 receptor up to 10 uM
pIC50: −log10 of the molar value.
measurement.type: pIC50

Field: pIC50 (P2X purinoceptor 5 (Homo sapiens, UniProt Q93086)). Entry: "COc1cc(C(C)C)c(Oc2cnc(NC(CO)CO)nc2N)cc1I" < 5.00

* * *

- target.entity: P2X2/P2X3 heterotrimeric receptor (Homo sapiens, UniProt P56373+Q9UBL9)
- Sequence (Q9UBL9 whole entry): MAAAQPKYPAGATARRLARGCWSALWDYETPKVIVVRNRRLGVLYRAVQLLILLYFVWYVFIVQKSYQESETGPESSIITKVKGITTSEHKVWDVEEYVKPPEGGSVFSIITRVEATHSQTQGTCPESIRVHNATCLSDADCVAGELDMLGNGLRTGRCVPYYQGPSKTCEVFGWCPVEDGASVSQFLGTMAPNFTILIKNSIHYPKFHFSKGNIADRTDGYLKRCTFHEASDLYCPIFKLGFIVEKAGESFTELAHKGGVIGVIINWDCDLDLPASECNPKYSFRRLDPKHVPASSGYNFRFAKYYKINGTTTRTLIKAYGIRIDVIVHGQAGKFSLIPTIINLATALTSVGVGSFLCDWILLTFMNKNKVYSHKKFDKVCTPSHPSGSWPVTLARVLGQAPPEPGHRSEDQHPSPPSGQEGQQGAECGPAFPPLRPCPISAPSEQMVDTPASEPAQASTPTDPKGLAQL
- Sequence (P56373 whole entry): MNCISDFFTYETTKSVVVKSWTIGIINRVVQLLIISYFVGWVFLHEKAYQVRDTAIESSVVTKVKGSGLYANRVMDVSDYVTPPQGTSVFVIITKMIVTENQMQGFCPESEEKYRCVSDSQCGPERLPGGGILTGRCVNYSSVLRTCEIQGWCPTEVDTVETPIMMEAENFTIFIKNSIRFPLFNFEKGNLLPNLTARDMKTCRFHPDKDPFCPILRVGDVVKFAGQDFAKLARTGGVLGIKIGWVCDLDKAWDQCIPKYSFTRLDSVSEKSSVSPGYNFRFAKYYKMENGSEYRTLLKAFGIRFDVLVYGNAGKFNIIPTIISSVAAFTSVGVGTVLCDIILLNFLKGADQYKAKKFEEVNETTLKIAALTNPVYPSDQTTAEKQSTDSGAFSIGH
- experimental.details: Antagonist activity at human P2X2/3 receptor expressed in 1321n1c cells by FLIPR
- Format: functional, cell-based
- condition.description: read-out: pIC50 (converted)
Rule: measured IC50 below 300 nM gets class 1; anything equal to or greater than 300 nM gets class 0.

{"columns": ["sample.smiles", "group"],
 "data": [
  ["COc1cc(C(C)C)c(Oc2cnc(NCCN3CCOCC3)nc2N)cc1I", "class 0"],
  ["COc1cc(C(C)C)c(Oc2cnc(N(C)C)nc2N)cc1I", "class 0"],
  ["COc1cc(C(C)C)c(Oc2cnc(NCCO)nc2N)cc1I", "class 1"],
  ["COc1cc(C(C)C)c(Oc2cnc(NCCN(C)C)nc2N)cc1I", "class 1"]
]}

Given "COc1cc(C(C)C)c(Oc2cnc(NCC(F)(F)F)nc2N)cc1I" , is recorded IC50 strictly lower than 300 nM? class 1

Given "COc1cc(C(C)C)c(Oc2cnc(N)nc2N)cc1I" , is recorded IC50 strictly lower than 300 nM? class 1

Given "COc1cc(C(C)C)c(Oc2cnc(NC(C)(C)CO)nc2N)cc1I" , is recorded IC50 strictly lower than 300 nM? class 0

Given "COc1cc(C(C)C)c(Oc2cnc(NC3CCN(S(C)(=O)=O)CC3)nc2N)cc1I" , is recorded IC50 strictly lower than 300 nM? class 0

* * *

- target.entity: P2X purinoceptor 3 (Rattus norvegicus, UniProt P49654)
- Sequence (P49654 whole entry): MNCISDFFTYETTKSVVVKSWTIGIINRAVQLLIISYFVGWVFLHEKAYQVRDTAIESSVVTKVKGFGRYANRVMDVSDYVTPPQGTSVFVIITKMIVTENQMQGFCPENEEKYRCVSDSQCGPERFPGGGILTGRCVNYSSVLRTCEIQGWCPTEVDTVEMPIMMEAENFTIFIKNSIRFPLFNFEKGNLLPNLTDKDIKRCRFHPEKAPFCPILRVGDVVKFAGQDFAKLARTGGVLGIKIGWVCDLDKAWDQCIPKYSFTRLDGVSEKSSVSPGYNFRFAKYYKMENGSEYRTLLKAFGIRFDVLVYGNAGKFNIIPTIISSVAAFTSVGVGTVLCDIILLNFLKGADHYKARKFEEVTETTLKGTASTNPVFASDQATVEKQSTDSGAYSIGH
- experimental.details: Antagonist activity at rat P2X3 receptor expressed in CHO cells by FLIPR
- Format: functional, cell-based
- condition.description: read-out: IC50
measurement.type: IC50 (nM)
One number for each entry, in nM.

Quick one: IC50 for "COc1cc(C(C)C)c(Oc2cnc(N)nc2N)cc1I" ? 13

* * *

Could you please report measured bioavailability for the items listed next?
- experimental.details: Oral bioavailability in rat at 2 mg/kg administered as single dose
- Assay type: ADME, organism-based
- condition.description: in vivo
Numbers only, in %.

Each of the following entries comes with a recorded value; kindly state bioavailability for each.
1. COc1cc(C(C)C)c(Oc2cnc(N)nc2N)cc1I
2. COc1cc(C(C)C)c(Oc2cnc(NC(CO)CO)nc2N)cc1I

[39, 48]

* * *

Could you please report measured Tmax for the items listed next?
- experimental.details: Tmax in rat at 2 mg/kg, iv administered as single dose
- Assay type: ADME, organism-based
- Design: dose 2 mg/kg, route intravenous
- condition.description: in vivo
Answers are plain numbers, in min.

{"columns": ["sample.smiles", "Tmax [min]"],
 "data": [
  ["COc1cc(C(C)C)c(Oc2cnc(N)nc2N)cc1I", 4.98]
]}

Please find the next compound below.
Quick one: Tmax for "COc1cc(C(C)C)c(Oc2cnc(NC(CO)CO)nc2N)cc1I" ? 10

* * *

Could you please report measured clearance for the items listed next?
- System: Rattus norvegicus
- experimental.details: Clearance in rat at 2 mg/kg, iv administered as single dose
- Assay type: ADME, organism-based
- Set-up: dose 2 mg/kg, route intravenous
- condition.description: in vivo
Give bare numbers, in mL/min/kg.

Each of the following entries comes with a recorded value; kindly state clearance for each.
1. COc1cc(C(C)C)c(Oc2cnc(N)nc2N)cc1I
2. COc1cc(C(C)C)c(Oc2cnc(NC(CO)CO)nc2N)cc1I

1: 52.8; 2: 71.9
